# System: α-glucosidase
# Protocol: in vitro α-glucosidase inhibitory activity
# Type: biochemical, Homo sapiens
# Assay Setup: 125 µM
Reported % α-Glucosidase Inhibition is given for each of the following compounds.
Report the figure in % without appending any unit label.

Compound	Study Target	Quantity Unit	Test Result
C[C@H]1O[C@H](O[C@H]2[C@H](O)[C@@H](O)[C@@H](O[C@H]3[C@H](O)[C@@H](O)C(O)O[C@@H]3CO)O[C@@H]2CO)[C@H](O)[C@@H](O)[C@@H]1N[C@H]1C=C(CO)[C@@H](O)[C@H](O)[C@H]1O (stereo partly drawn) [Acarbose, acarbose, reference compound]	α-glucosidase	%	80.90
CC(C)(/C=C1\SC(=O)N(C(=O)CN2CCOCC2)C1=O)[C@@H]1CC(=O)NC1=O [10a]	α-glucosidase	%	72.93
COc1ccc(N2C(=O)C[C@@H](C(C)(C)/C=C3\SC(=O)N(C(=O)CN4CCOCC4)C3=O)C2=O)cc1 [10e]	α-glucosidase	%	79.84
CC(C)(C=C1SC(=O)N(C(=O)CN2CCOCC2)C1=O)C1CC(=O)N(Cc2ccccc2)C1=O (stereo not drawn) [10d]	α-glucosidase	%	77.93
CC(C)(/C=C1\SC(=O)N(C(=O)CN2CCOCC2)C1=O)[C@@H]1CC(=O)N(c2ccccc2)C1=O [10c]	α-glucosidase	%	71.42

*Q* Look up % α-Glucosidase Inhibition for this compound: CN1C(=O)C[C@@H](C(C)(C)/C=C2\SC(=O)N(C(=O)CN3CCOCC3)C2=O)C1=O [10b]
*A* 70.60

---

# Study Target: PTP1B (Homo sapiens, UniProt P18031)
# Sequence (P18031 whole entry, species assumed): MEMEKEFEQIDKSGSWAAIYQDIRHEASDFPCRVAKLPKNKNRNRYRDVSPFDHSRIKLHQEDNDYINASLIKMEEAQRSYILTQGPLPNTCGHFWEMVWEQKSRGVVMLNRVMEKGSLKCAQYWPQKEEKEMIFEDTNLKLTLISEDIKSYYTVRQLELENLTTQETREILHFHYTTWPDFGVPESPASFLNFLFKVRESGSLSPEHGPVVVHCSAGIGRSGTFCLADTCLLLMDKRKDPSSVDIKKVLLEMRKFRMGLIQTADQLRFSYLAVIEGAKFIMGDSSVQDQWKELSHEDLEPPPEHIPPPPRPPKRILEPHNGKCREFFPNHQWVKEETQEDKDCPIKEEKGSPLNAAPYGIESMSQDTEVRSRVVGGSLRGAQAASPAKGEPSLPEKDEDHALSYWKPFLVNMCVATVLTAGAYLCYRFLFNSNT
# Protocol: PTP1B assay (pNPP substrate)
# Assay type: biochemical
# Assay Setup: 62.5 µM
Measured Parameter: inhibition at 62.5 µM (%)
Report the figure in % without appending any unit label.

*Q* Look up inhibition at 62.5 µM for this molecule: COc1ccc(N2C(=O)C[C@@H](C(C)(C)/C=C3\SC(=O)N(C(=O)CN4CCOCC4)C3=O)C2=O)cc1 [10e]
*A* 63.5

*Q* Look up inhibition at 62.5 µM for this molecule: C[C@H]1[C@H](C)CC[C@]2(C(=O)O)CC[C@]3(C)C(=CC[C@@H]4[C@@]5(C)CC[C@H](O)C(C)(C)[C@@H]5CC[C@]43C)[C@H]12 [Ursolic acid, ursolic acid, reference compound]
*A* 76.4

*Q* Look up inhibition at 62.5 µM for this molecule: CC(C)(/C=C1\SC(=O)N(C(=O)CN2CCOCC2)C1=O)[C@@H]1CC(=O)N(c2ccccc2)C1=O [10c]
*A* 63.4

*Q* Look up inhibition at 62.5 µM for this molecule: CN1C(=O)C[C@@H](C(C)(C)/C=C2\SC(=O)N(C(=O)CN3CCOCC3)C2=O)C1=O [10b]
*A* 65.8

*Q* Look up inhibition at 62.5 µM for this molecule: CC(C)(/C=C1\SC(=O)N(C(=O)CN2CCOCC2)C1=O)[C@@H]1CC(=O)NC1=O [10a]
*A* 69.2

*Q* Look up inhibition at 62.5 µM for this molecule: CC(C)(C=C1SC(=O)N(C(=O)CN2CCOCC2)C1=O)C1CC(=O)N(Cc2ccccc2)C1=O (stereo not drawn) [10d]
*A* 74.7

---

# Study Target: human DPP-4 enzyme (Homo sapiens, UniProt P27487)
# Construct: purchased
# Sequence (P27487 whole entry): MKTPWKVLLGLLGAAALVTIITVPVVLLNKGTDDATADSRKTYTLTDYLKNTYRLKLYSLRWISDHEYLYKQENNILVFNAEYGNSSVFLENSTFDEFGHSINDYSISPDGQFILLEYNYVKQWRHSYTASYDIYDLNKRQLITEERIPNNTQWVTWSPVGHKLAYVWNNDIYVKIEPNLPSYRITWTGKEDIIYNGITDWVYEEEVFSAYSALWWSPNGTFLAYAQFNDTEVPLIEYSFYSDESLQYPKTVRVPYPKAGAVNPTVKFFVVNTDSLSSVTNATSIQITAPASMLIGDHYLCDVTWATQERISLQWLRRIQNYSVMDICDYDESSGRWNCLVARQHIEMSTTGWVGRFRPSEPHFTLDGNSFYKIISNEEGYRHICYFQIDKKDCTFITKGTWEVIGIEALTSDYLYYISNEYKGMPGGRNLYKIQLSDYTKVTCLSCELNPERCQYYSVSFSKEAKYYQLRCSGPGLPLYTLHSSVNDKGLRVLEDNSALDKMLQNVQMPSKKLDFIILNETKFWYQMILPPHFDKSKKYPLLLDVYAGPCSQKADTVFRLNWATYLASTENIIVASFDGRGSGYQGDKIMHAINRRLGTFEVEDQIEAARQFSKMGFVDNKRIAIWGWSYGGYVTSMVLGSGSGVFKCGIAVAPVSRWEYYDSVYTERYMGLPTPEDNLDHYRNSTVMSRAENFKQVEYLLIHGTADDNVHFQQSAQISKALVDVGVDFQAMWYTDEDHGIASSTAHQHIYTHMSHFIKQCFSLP
# Protocol: DPP-4 activity bioassay
# Assay type: biochemical
# Assay Setup: 250 µM; read-out: DPP4 (inhibition) (converted)
Measured Parameter: inhibition at 250 µM (%)
Report the figure in % without appending any unit label.

Compound	Study Target	Quantity Unit	inhibition at 250 µM
CC(C)(/C=C1\SC(=O)N(C(=O)CN2CCOCC2)C1=O)[C@@H]1CC(=O)NC1=O [10a]	human DPP-4 enzyme (Homo sapiens, UniProt P27487)	%	82.5

*Q* Look up inhibition at 250 µM for this compound: CC(C)(C=C1SC(=O)N(C(=O)CN2CCOCC2)C1=O)C1CC(=O)N(Cc2ccccc2)C1=O (centres unmarked) [10d]
*A* 85.3

*Q* Look up inhibition at 250 µM for this compound: CC(C)(/C=C1\SC(=O)N(C(=O)CN2CCOCC2)C1=O)[C@@H]1CC(=O)N(c2ccccc2)C1=O [10c]
*A* 72.6

*Q* Look up inhibition at 250 µM for this compound: COc1ccc(N2C(=O)C[C@@H](C(C)(C)/C=C3\SC(=O)N(C(=O)CN4CCOCC4)C3=O)C2=O)cc1 [10e]
*A* 82.5

*Q* Look up inhibition at 250 µM for this compound: CN1C(=O)C[C@@H](C(C)(C)/C=C2\SC(=O)N(C(=O)CN3CCOCC3)C2=O)C1=O [10b]
*A* 75.8
